# Test system: LG0567-F671-PDC complex spheroids viability
# test: Anticancer human tumor LG0567-F671-PDC patient-derived lung adenocarcinoma cell line growth inhibition [RAS]; active = viability on the fitted dose curve at most 10% of control; inactive = the rest
# settings: second compound 0.03 µM; first compound 0.316 µM
# Description: RAS pathway inhibitors in Combinations in Complex Spheroids A high-throughput screen of multi-cell type tumor spheroids was designed to identify active combinations of RAS pathway inhibitors and targeted small molecules. Complex spheroids include a stromal component modeled by human endothelial cells (HUVEC) and fibroblasts modeled by human mesenchymal stem cells (MSCs). […] Compounds. […] If the clinical Cmax for an agent had not been determined, the highest concentration tested was 10 microM. […]
// classify into active, inactive

Recorded call for CCC(CC)c1cc(NC2CCC(N)C2)n2nccc2n1 (stereo not given) + CCn1c(-c2cc(N3CCN(C)CC3)cnc2C(C)OC)c2c3cc(ccc31)-c1csc(n1)CC(NC(=O)C1CC1C)C(=O)N1CCCC(N1)C(=O)OCC(C)(C)C2 ?
active

Kindly provide the recorded test outcome for the following compound: Cc1nc(N2CCC3(CC2)COC(C)C3N)c(CO)nc1Sc1ccnc(N)c1Cl (stereo not given) + CCn1c(-c2cccnc2C(C)OC)c2c3cc(ccc31)N1CCOC(CC(NC(=O)C(C(C)C)N(C)C(=O)C3(F)CCN(C(=O)C#CC(C)(C)N(C)C)CC3)C(=O)N3CCCC(N3)C(=O)OCC(C)(C)C2)C1
active

I'd appreciate the recorded outcome for CC(Nc1ccc2c(c1)OCCn1cc(N3C(=O)OCC3C(F)F)nc1-2)C(N)=O (stereo not given) + CCn1c(-c2cccnc2C(C)OC)c2c3cc(ccc31)N1CCOC(CC(NC(=O)C(C(C)C)N(C)C(=O)C3(F)CCN(C(=O)C#CC(C)(C)N(C)C)CC3)C(=O)N3CCCC(N3)C(=O)OCC(C)(C)C2)C1 from this test.
active

Hi, sorry to bother you, what did the test record for NC1c2ccccc2OC12CCN(c1cnc3c(N4CCCc5ncccc54)n[nH]c3n1)CC2 (stereo not given) + CCn1c(-c2cc(N3CCN(C)CC3)cnc2C(C)OC)c2c3cc(ccc31)-c1csc(n1)CC(NC(=O)C1CC1C)C(=O)N1CCCC(N1)C(=O)OCC(C)(C)C2 ?
active

Field: outcome | Entry: C=CC(=O)Nc1cc(Nc2nccc(-c3cn(C)c4ccccc34)n2)c(OC)cc1N(C)CCN(C)C + CCn1c(-c2cc(N3CCN(C)CC3)cnc2C(C)OC)c2c3cc(ccc31)-c1csc(n1)CC(NC(=O)C1CC1C)C(=O)N1CCCC(N1)C(=O)OCC(C)(C)C2
active

Please indicate how the test categorized CCC(CC)c1cc(NC2CCC(N)C2)n2nccc2n1 (stereo not given) + CCn1c(-c2cccnc2C(C)OC)c2c3cc(ccc31)N1CCOC(CC(NC(=O)C(C(C)C)N(C)C(=O)C3(F)CCN(C(=O)C#CC(C)(C)N(C)C)CC3)C(=O)N3CCCC(N3)C(=O)OCC(C)(C)C2)C1 .
inactive

Give the logged outcome of this assay for the following compound: C=CC(=O)N1CCN(c2nc(OCC3CCCN3C)nc3c(F)c(-c4nc(N)cc(C)c4C(F)(F)F)c(Cl)cc23)C(C)C1 (stereo not given) + CCn1c(-c2cc(N3CCN(C)CC3)cnc2C(C)OC)c2c3cc(ccc31)-c1csc(n1)CC(NC(=O)C1CC1C)C(=O)N1CCCC(N1)C(=O)OCC(C)(C)C2
active

Please share the test call associated with O=C(c1ccc(F)c(F)c1Nc1ccc(I)cc1F)N1CC(O)([C@@H]2CCCCN2)C1 + CCn1c(-c2cc(N3CCN(C)CC3)cnc2C(C)OC)c2c3cc(ccc31)-c1csc(n1)CC(NC(=O)C1CC1C)C(=O)N1CCCC(N1)C(=O)OCC(C)(C)C2 .
active

Which outcome was assigned to CC1(O)CCCC1n1c(=O)c(C(F)F)cc2cnc(NC3CCN(S(C)(=O)=O)CC3)nc21 (stereo not given) + CCn1c(-c2cc(N3CCN(C)CC3)cnc2C(C)OC)c2c3cc(ccc31)-c1csc(n1)CC(NC(=O)C1CC1C)C(=O)N1CCCC(N1)C(=O)OCC(C)(C)C2 in this test?
active

----------
# Test system: LG0567-F671-PDC complex spheroids viability
# test: Anticancer human tumor LG0567-F671-PDC cell line growth inhibition [RAS];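 note: spheroids exposed to compound for seven days before readout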
# settings: second compound 0.00316 µM; first compound 0.0316 µM; hits give low values
Listing of recorded viability, T/C by entry.
Give the number; % is assumed, so skip it.

Some solved cases for reference:
{"compound": "CCN1CCN(Cc2ccc(Nc3ncc(F)c(-c4cc(F)c5nc(C)n(C(C)C)c5c4)n3)nc2)CC1 + C=CC(=O)N1CCN(c2nc(OCC3CCCN3C)nc3c(F)c(-c4nc(N)cc(C)c4C(F)(F)F)c(Cl)cc23)C(C)C1", "viability, T/C [%]": 13.7}
{"compound": "CC(Nc1ccc2c(c1)OCCn1cc(N3C(=O)OCC3C(F)F)nc1-2)C(N)=O (stereo not drawn) + C=CC(=O)N1CCN(c2nc(OCC3CCCN3C)nc3c(F)c(-c4nc(N)cc(C)c4C(F)(F)F)c(Cl)cc23)C(C)C1", "viability, T/C [%]": 15.2}

Attention now shifts to the item below.
Measured viability, T/C (LG0567-F671-PDC complex spheroids viability), entry NC1c2ccccc2OC12CCN(c1cnc3c(N4CCCc5ncccc54)n[nH]c3n1)CC2 (stereo not drawn) + C=CC(=O)N1CCN(c2nc(OCC3CCCN3C)nc3c(F)c(-c4nc(N)cc(C)c4C(F)(F)F)c(Cl)cc23)C(C)C1 : 6.27

----------
# Tested on: LG0567-F671-PDC complex spheroids viability
# test: Anticancer human tumor LG0567-F671-PDC cell line growth inhibition [RAS]; active = viability on the fitted dose curve at most 10% of control; inactive = the rest;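 note: spheroids exposed to compound for seven days before readout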
# settings: second compound 1 µM; first compound 0.01 µM
Tick one outcome: active, inactive

{"compound": "CCN1CCN(Cc2ccc(Nc3ncc(F)c(-c4cc(F)c5nc(C)n(C(C)C)c5c4)n3)nc2)CC1 + C#Cc1c(F)ccc2cc(O)cc(-c3ncc4c(N5CC6CCC(C5)N6)nc(OCC56CCCN5CC(F)C6)nc4c3F)c12", "assay.system": "LG0567-F671-PDC complex spheroids viability", "category": "inactive"}

Please let me know the test result on file for CCN1CCN(Cc2ccc(Nc3ncc(F)c(-c4cc(F)c5nc(C)n(C(C)C)c5c4)n3)nc2)CC1 + C=CC(=O)N1CCN(c2nc(OCC3CCCN3C)nc3c(F)c(-c4nc(N)cc(C)c4C(F)(F)F)c(Cl)cc23)C(C)C1 .
inactive

Record lookup: outcome of this test for O=C(c1ccc(F)c(F)c1Nc1ccc(I)cc1F)N1CC(O)([C@@H]2CCCCN2)C1 + C#Cc1c(F)ccc2cc(O)cc(-c3ncc4c(N5CC6CCC(C5)N6)nc(OCC56CCCN5CC(F)C6)nc4c3F)c12 ?
inactive

Check the results log: what was the call for Nc1ccn(C2OC(CO)C(O)C2(F)F)c(=O)n1 (stereo unspecified) + C#Cc1c(F)ccc2cc(O)cc(-c3ncc4c(N5CC6CCC(C5)N6)nc(OCC56CCCN5CC(F)C6)nc4c3F)c12 ?
inactive

// outcome(item) with item = Nc1ccn(C2OC(CO)C(O)C2(F)F)c(=O)n1 (stereo unspecified) + C=CC(=O)N1CCN(c2nc(OCC3CCCN3C)nc3c(F)c(-c4nc(N)cc(C)c4C(F)(F)F)c(Cl)cc23)C(C)C1
inactive

Which outcome was assigned to C=CC(=O)N1CCN(c2nc(OCC3CCCN3C)nc3c(F)c(-c4nc(N)cc(C)c4C(F)(F)F)c(Cl)cc23)C(C)C1 (stereo unspecified) + C#Cc1c(F)ccc2cc(O)cc(-c3ncc4c(N5CC6CCC(C5)N6)nc(OCC56CCCN5CC(F)C6)nc4c3F)c12 in this test?
inactive

// outcome(item) with item = C=CC(=O)Nc1cc(Nc2nccc(-c3cn(C)c4ccccc34)n2)c(OC)cc1N(C)CCN(C)C + C#Cc1c(F)ccc2cc(O)cc(-c3ncc4c(N5CC6CCC(C5)N6)nc(OCC56CCCN5CC(F)C6)nc4c3F)c12
inactive

For O=C(c1ccc(F)c(F)c1Nc1ccc(I)cc1F)N1CC(O)([C@@H]2CCCCN2)C1 + C=CC(=O)N1CCN(c2nc(OCC3CCCN3C)nc3c(F)c(-c4nc(N)cc(C)c4C(F)(F)F)c(Cl)cc23)C(C)C1 , what call appears in the results of this test?
inactive

# fetch the recorded call for C=CC(=O)Nc1cc(Nc2nccc(-c3cn(C)c4ccccc34)n2)c(OC)cc1N(C)CCN(C)C + C=CC(=O)N1CCN(c2nc(OCC3CCCN3C)nc3c(F)c(-c4nc(N)cc(C)c4C(F)(F)F)c(Cl)cc23)C(C)C1 here
inactive

// outcome(item) with item = CC(C)n1nc(-c2ccc3oc(N)nc3c2)c2c(N)ncnc21 + C#Cc1c(F)ccc2cc(O)cc(-c3ncc4c(N5CC6CCC(C5)N6)nc(OCC56CCCN5CC(F)C6)nc4c3F)c12
inactive

Which outcome was assigned to CC(C)n1nc(-c2ccc3oc(N)nc3c2)c2c(N)ncnc21 + C=CC(=O)N1CCN(c2nc(OCC3CCCN3C)nc3c(F)c(-c4nc(N)cc(C)c4C(F)(F)F)c(Cl)cc23)C(C)C1 in this test?
active

Data credit: PubChem BioAssay AID2060889
